# Test system: LOX IMVI melanoma
# Test Method Notes: NCI-60 one-dose screen, 48 h
# Experimental Setup: 10 µM unless noted
This is part of a sample that, as a whole, favours compounds with a hit. Of some 83,000 tested, about 20% had one in any assay. Active and inactive are the calls of the source. How the source made its calls: active means growth percent below 10; inactive means the rest.
Valid outcomes are listed here; reply with one: 1 (yes) (active), 0 (no) (inactive)

Please indicate how the test categorized `Cn1c(C(N)=O)cc2c1-c1nc(NC3CCCCC3)ncc1CCC2` . 0 (no)

Same thing, different compound: `Nc1ccc(S(=O)(=O)c2ccc(Cl)cc2)cc1` 0 (no)

Same thing, different compound: `O=S(=O)(NCCCNc1cc(-c2cn(-c3ccccc3)nc2-c2cccc(O)c2)ccn1)c1ccc(C(F)(F)F)cc1` 0 (no)

Same thing, different compound: `Cc1cccc(-n2c(C)nc3ccc(NC(=O)NCCCl)cc3c2=O)c1` 0 (no)

Same thing, different compound: COC1=CC(c2ccc[nH]2)=N/C1=C\c1[nH]c(C)c(C(=O)CCC(=O)Oc2ccc3c(c2)CCC2C3CC[C@]3(C)[C@@H](O)CC[C@@H]23)c1C (stereo not given in full) 1 (yes)

Same thing, different compound: CC(Br)C(Br)c1cc2c(cc1Br)OCO2 (stereo not given) 0 (no)

Same thing, different compound: `CC(=O)Nc1ccc2c(c1)/C(=C\C=C/c1ccc([N+](C)(C)C)cc1)c1ccccc1-2` 0 (no)

Same thing, different compound: `COc1ccc(-n2c(C)cc(-c3ccccc3)c2C)cc1` 0 (no)

Same thing, different compound: `COc1ccc(-c2nc(-c3ccccc3)c(-c3ccccc3)n2C2CC2)cc1OC1CCCCC1` 0 (no)

Same thing, different compound: `CCC1=C[C@@H]2CN(C1)Cc1c([nH]c3ccccc13)[C@@](C(=O)OC)(c1cc3c(cc1OC)N(C=O)[C@H]1[C@@](O)(C(=O)OC)[C@H](OC(C)=O)[C@]4(CC)[C@@H]5C[C@@H]5CN5CC[C@]31[C@@H]54)C2` 1 (yes)
